Hello, the source for this data is ChEMBL document CHEMBL1201862, in case you need it.

Tested on: MDA-N
TEST_METHOD_NOTES: NCI tumour cell line growth inhibition, 48 h
Activity calls are given as the source filed them. Cut-off read from the data, not from the text of the source: active = GI50 up to about 1.1 µM and inactive = higher.
METRIC: GI50

COMPOUND	GI50
O=c1[nH]c2cc3[nH]c4ncccc4c(=O)c3cc2[nH]1	> 10 µM (inactive)
CCOP(=O)(OCC)C(Cc1ccc(OC)c(OC)c1)N=C(c1ccccc1)c1ccccc1 (stereo unspecified)	59.8 µM (inactive)
C=CCOC1(CC=C)C(=O)OC2C(O)COC21O (stereo unspecified)	> 100 µM (inactive)
O=C1Nc2ccccc2/C1=N/NC(=S)Nc1ccccc1Cl	20.6 µM (inactive)
OCC1OC(OCC(O)C(O)C(O)C(/C=N/Nc2ccccc2)=N/Nc2ccccc2)C(O)C(O)C1O (stereo unspecified)	> 100 µM (inactive)
Cc1c(NC(=O)CSC(=S)N2CCN(Cc3ccccc3)CC2)c(=O)n(-c2ccccc2)n1C	> 100 µM (inactive)
Nc1ncn(C2OC(COP(=O)(O)O)C(O)C2O)c(=O)n1 (stereo unspecified)	> 100 µM (inactive)
C1CNOCCCONCCCNOCCCONC1	> 100 µM (inactive)
CC1OC(NCCNCCNC2OC(C)C(O)C(O)C2O)C(O)C(O)C1O (stereo unspecified)	> 100 µM (inactive)
O=[N+]([O-])c1cc(Cl)ccc1Sc1ccccc1	98.4 µM (inactive)

GI50 recorded for this compound, "ClCc1nc2cc(Cl)ccc2o1" , is 5.71 µM (inactive)

GI50 recorded for this compound, "Nc1nn2c(=O)c3ccccc3nc2s1" , is 38.3 µM (inactive)

GI50 recorded for this compound, "O=C1Nc2ccccc2/C1=C\c1c(Cl)nc2n1CCS2" , is 15.7 µM (inactive)

GI50 recorded for this compound, O=C1CSC2(CC(/C=C/c3cccc([N+](=O)[O-])c3)=NN2c2cccc(S(=O)(=O)O)c2)N1c1nc2ccccc2s1 (stereo unspecified) , is 25.1 µM (inactive)

GI50 recorded for this compound, "O=[N+]([O-])C(C(Cl)=C(Cl)Cl)=C(N1CCOCC1)N1CCOCC1" , is > 100 µM (inactive)

GI50 recorded for this compound, "CN1CNc2nc(N)n(C)c(=O)c2C1" , is > 10 µM (inactive)

GI50 recorded for this compound, "COc1ccc(/C=C2\C[C@H]3[C@@H]4CCC5=C[C@@H](N6CCCC6)CC[C@]5(C)[C@H]4CC[C@]3(C)[C@H]2O)cc1" , is 1.57 µM (inactive)

GI50 recorded for this compound, "CC(C)c1ccc(O)c(=O)c(O)c1.CC(C)c1ccc(O)c(=O)cc1.CC(C)c1cccc(=O)c(O)c1.CC(C)c1ccccc(=O)c1O" , is 3.32 µM (inactive)

GI50 recorded for this compound, CC(=O)CC1(C)OC(N)=C(C#N)C1(C#N)C#N (stereo unspecified) , is > 100 µM (inactive)

GI50 recorded for this compound, CCCCCC(/C=C/[C@@H]1[C@@H](C(O)CCCCCC(=O)OC)C(=O)C[C@H]1O[Si](C)(C)C(C)(C)C)OCOCCOC (stereo partly specified) , is 8.51 µM (inactive)

GI50 recorded for this compound, CN1CCc2cc(N)cc3c2C1Cc1ccc2c(c1-3)OCO2 (stereo unspecified) , is 19.2 µM (inactive)

---

Tested on: HCT-116
TEST_METHOD_NOTES: NCI tumour cell line growth inhibition, 48 h
The source made the active and inactive calls. Cut-off read from the data, not from the text of the source: active = GI50 up to about 1.1 µM and inactive = higher.
Parameter call: string, one of class 1 (active), class 0 (inactive)

COMPOUND	QUALITATIVE_LABEL
Cc1c(NC(=O)CSC(=S)N2CCN(Cc3ccccc3)CC2)c(=O)n(-c2ccccc2)n1C	class 0
NCC#CCNCCCN1CC1	class 0
Cc1c(/C=N/NC(=O)c2ccccc2O)c(=O)n(-c2ccccc2)n1C	class 0
CC1(O)CCC2(C#N)CCC1C2O (centres undefined)	class 0
CCOC(=O)/C=C/CCC(C)(C)COC(C)=O	class 0

[ask] Recorded call for CCC12CCCN(Cc3ccccc3)C1c1c(n(C)c3ccccc13)C(C(=O)OC)C2 (centres undefined) ?
[reply] class 0

[ask] Recorded call for "COc1cc2c3c(c1Oc1nnnn1-c1ccccc1)-c1c(ccc4c1OCO4)C[C@H]3N(C)CC2" ?
[reply] class 0

[ask] Recorded call for COc1ccc(C2N3CCCCC3[C@@H]3c4[nH]c5ccccc5c4CCN23)c(OC)c1 (some centres undefined) ?
[reply] class 0

[ask] Recorded call for "COc1cc(-c2nnc3n2NC=C(C(=O)O)S3)cc(OC)c1OC" ?
[reply] class 0

[ask] Recorded call for "O=C1Nc2ccccc2/C1=N/NC(=S)Nc1ccccc1Cl" ?
[reply] class 1

[ask] Recorded call for "OCCCc1ccc2c(c1)[C@H](CO)[C@@H](c1ccc(O)cc1)O2" ?
[reply] class 0

[ask] Recorded call for CN1C(=O)C(Cl)(C(Cl)(Cl)S(=O)(=O)O)C(=O)c2ccccc21.c1ccncc1 (centres undefined) ?
[reply] class 0

[ask] Recorded call for COc1ccc(/C=C2\CCCC(C(NO)c3ccc(OC)cc3)C2=NO)cc1 (centres undefined) ?
[reply] class 0

[ask] Recorded call for S=C1c2ccccc2N=C(NC2CCCC2)C2CSCN12 (centres undefined) ?
[reply] class 0

[ask] Recorded call for C1=CC2CCC1CN2CCC1CNc2ccccc21 (centres undefined) ?
[reply] class 0

[ask] Recorded call for COC(=O)/C=C(\C)CC/C=C(\C)CCC(O)C(C)(C)O (centres undefined) ?
[reply] class 0

[ask] Recorded call for "COc1ccc(-c2cc(=O)c3c(O)c(OC)c(O)c(OC)c3o2)cc1OC" ?
[reply] class 0

[ask] Recorded call for COc1ccc(C(CC(=O)c2cccs2)C(=O)c2ccc3c(c2)OCO3)cc1 (centres undefined) ?
[reply] class 0

---

Tested on: A549
TEST_METHOD_NOTES: NCI tumour cell line growth inhibition, 48 h
Activity calls are given as the source filed them. Cut-off read from the data, not from the text of the source: active = GI50 up to about 1.1 µM and inactive = higher.
// GI50 lookup, one value per entry

MOLECULE	GI50
Oc1c(Cl)c(Cl)c(O)c(CCNc2nccs2)c1Cl	21.6 µM (inactive)
O=S(=O)(N/C(=N\O)Nc1ccc(Cl)cc1)c1ccccc1	21.2 µM (inactive)
C1=CC2CCC1CN2CCC1CNc2ccccc21 (stereo unspecified)	> 100 µM (inactive)
CC(=O)OC1COC(n2c(=S)n(-c3ccccc3)c(=O)c3ccccc32)C(OC(C)=O)C1OC(C)=O (stereo unspecified)	39.9 µM (inactive)
CC1OC(NCCNCCNC2OC(C)C(O)C(O)C2O)C(O)C(O)C1O (stereo unspecified)	> 100 µM (inactive)

Consider the record given below.
GI50 recorded for this molecule, "O=S(=O)(NCn1ccc2ccccc21)c1ccccc1" , is > 100 µM (inactive)

---

// GI50 lookup, one value per entry
Test system: DU-145
TEST_METHOD_NOTES: NCI tumour cell line growth inhibition, 48 h
Active and inactive are the calls of the source. Cut-off read from the data, not from the text of the source: active = GI50 up to about 1.1 µM and inactive = higher. Square brackets hold non-standard residues; d marks the D form. Peptide text beside a SMILES is read from it. Phe(4-Cl) = N[CH](Cc1ccc(Cl)cc1)C(=O)O; 2Nal = N[CH](Cc1ccc2ccccc2c1)C(=O)O; 3Pal = N[CH](Cc1cccnc1)C(=O)O

Readout GI50 for "Cc1cc2c(cc1-c1cc3c(cc1C)C(C(C)C)=C(O)C(=O)/C3=C\Nc1cccc3c(N)cccc13)/C(=C/Nc1cccc3c(N)cccc13)C(=O)C(O)=C2C(C)C" , test system DU-145, was > 100 µM (inactive)

Readout GI50 for CC(C(=O)O)C1Nc2ccccc2NC1=O (configuration not stated) , test system DU-145, was > 100 µM (inactive)

Readout GI50 for CC(=O)CC1(C)OC(N)=C(C#N)C1(C#N)C#N (configuration not stated) , test system DU-145, was > 100 µM (inactive)

Readout GI50 for "O=C(O)CC(CC(=O)O)n1cccc1" , test system DU-145, was > 100 µM (inactive)

Readout GI50 for "CCOC(=O)c1nnn(CCCCO)c1C(=O)OCC" , test system DU-145, was > 100 µM (inactive)

Readout GI50 for CC(C)CCCC(C)[C@H]1CC[C@H]2n3c(nnc3-c3ccccc3)CCC[C@]12C (some centres not stated) , test system DU-145, was 16.2 µM (inactive)

Readout GI50 for CC(=O)OCC(Br)C1(C)CCC(C(C)(C)Br)O1 (configuration not stated) , test system DU-145, was > 100 µM (inactive)

Readout GI50 for "COc1c2cc([N+](=O)[O-])cc1CNC(=O)CN1CCOCCOCCN(CCOCCOCC1)CC(=O)NC2" , test system DU-145, was > 100 µM (inactive)

Readout GI50 for "O=[N+]([O-])C(C(Cl)=C(Cl)Cl)=C(N1CCOCC1)N1CCOCC1" , test system DU-145, was > 100 µM (inactive)

Readout GI50 for "Cc1ccc(C(=O)Nc2ccc(S(=O)(=O)O)c3cc(S(=O)(=O)O)cc(S(=O)(=O)O)c23)cc1NC(=O)c1cccc(NC(=O)Nc2cccc(C(=O)Nc3cc(C(=O)Nc4ccc(S(=O)(=O)O)c5cc(S(=O)(=O)O)cc(S(=O)(=O)O)c45)ccc3C)c2)c1" , test system DU-145, was > 100 µM (inactive)

Readout GI50 for COc1ccc(S(=O)(=O)N2C(=O)CCC2C(=O)NC(N)=O)cc1 (configuration not stated) , test system DU-145, was > 100 µM (inactive)

Readout GI50 for OCCCc1cc(O)c2c(c1)C(CO)C(c1ccc(O)c(O)c1)O2 (configuration not stated) , test system DU-145, was > 100 µM (inactive)

Readout GI50 for "COC(=O)/C=C/N1CC1" , test system DU-145, was > 10 µM (inactive)

Readout GI50 for "NCC#CCNCCCN1CC1" , test system DU-145, was > 100 µM (inactive)

Readout GI50 for Cc1ccc2[nH]c3c(c2c1)C1CCC(C(C)(C)C)CC1C1C(=O)N(c2ccc4c(c2)OCO4)C(=O)C31 (configuration not stated) , test system DU-145, was 2.99 µM (inactive)

Readout GI50 for CC1=NN(c2nc(N)nc(C(C)Cl)n2)C(C)(C)C1 (configuration not stated) , test system DU-145, was > 100 µM (inactive)

Readout GI50 for CC(=O)NC(Cc1ccc2ccccc2c1)C(=O)NC(Cc1ccc(Cl)cc1)C(=O)NC(Cc1cccnc1)C(=O)NC(CO)C(=O)NC(Cc1ccc(O)cc1)C(=O)NC(CCCN=C(N)N)C(=O)NC(CC(C)C)C(=O)NC(CCCN=C(N)N)C(=O)N1CCCC1C(=O)NC(C)C(N)=O (configuration not stated) (Ac-[2Nal][Phe(4-Cl)][3Pal]SYRLRPA-NH2; configuration not given here) , test system DU-145, was > 100 µM (inactive)
